Could you please report measured T/C for the items listed next?
test system: P388 leukemia ip, CD2F1 mice, survival T/C; experiment: NCI In Vivo Anticancer Drug Screen. Data for tumor model P388 Leukemia (intraperitoneal) in CD2F1 (CDF1) mice; details: endpoint: median survival time; dose: 12.5 mg/kg/injection; schedule: Q01DX005 (ip); vehicle: saline with Tween-80; higher = longer survival
Toxic doses and inconclusive results are not listed.

*Q* Give recorded T/C. Cn1nc(C#N)c(=O)[nH]c1=O
*A* 99 % of control

*Q* Give recorded T/C. C(=N[C@H]1CCCC[C@H]1N=Cc1ccc[nH]1)c1ccc[nH]1
*A* 101 % of control

*Q* Give recorded T/C. Cc1nn(C)c(NC(=O)c2ccccc2O)c1SC#N
*A* 93 % of control

*Q* Give recorded T/C. CN=C(NC)c1ccc(NC(=O)c2ccc(C(=O)Nc3ccc(C(=NC)NC)c(C)c3)cc2)cc1C
*A* 119 % of control

*Q* Give recorded T/C. Clc1cc(Cl)c2c(c1)[nH]c1nc3ccccc3nc12
*A* 90 % of control

*Q* Give recorded T/C. c1ccc2c(c1)oc1cc3c(cc12)ncc1cccn13
*A* 90 % of control

*Q* Give recorded T/C. Nc1nc2nc[nH]c(=O)c2[nH]1
*A* 99 % of control

*Q* Give recorded T/C. CCCCCCCCCCN1CCOCCOCCN(CCCCCCCCCC)CCOCCOCC1
*A* 99 % of control

*Q* Give recorded T/C. O=S(=O)(OCCCl)c1c(Cl)c(Cl)c(Cl)c(Cl)c1Cl
*A* 95 % of control

*Q* Give recorded T/C. NC(=O)c1[nH]c(=O)[nH]c(=O)c1CSc1ccc(Cl)cc1
*A* 97 % of control

*Q* Give recorded T/C. CCC/C=C(/C=N/Nc1ccc([N+](=O)[O-])cc1[N+](=O)[O-])CC
*A* 97 % of control

* * *

system: P388 leukemia ip, CD2F1 mice, survival T/C; assay: NCI In Vivo Anticancer Drug Screen. Data for tumor model P388 Leukemia (intraperitoneal) in CD2F1 (CDF1) mice; conditions: endpoint: median survival time; dose: 50.0 mg/kg/injection; schedule: Q01DX009 (ip); vehicle: saline with Tween-80; higher = longer survival
Inconclusive results and toxic doses are left out.
measurement.name: T/C

*Q* Give recorded T/C. CN(C)Cc1c(N=Nc2cccc3c(N=Nc4[nH]c5ccccc5c4CN(C)C)cccc23)[nH]c2ccccc12
*A* 110 % of control

*Q* Give recorded T/C. CC[As](CCO)SC1CC(OC(=O)c2ccccc2)C(OC(=O)c2ccccc2)C(COC(=O)c2ccccc2)O1 (stereo unspecified)
*A* 96 % of control

*Q* Give recorded T/C. COc1ccc(OC)c(NC2=C(Cl)C(=O)C(Nc3cc(OC)ccc3OC)=C(Cl)C2=O)c1
*A* 90 % of control

*Q* Give recorded T/C. O=C(CCl)c1ccc([N+](=O)[O-])cc1
*A* 116 % of control

*Q* Give recorded T/C. Nc1ncnc2nc[nH]c12
*A* 99 % of control

*Q* Give recorded T/C. CCOCC1COc2c(cc3[nH]cc(C(=O)OCC)c(=O)c3c2Cl)O1 (stereo unspecified)
*A* 111 % of control

*Q* Give recorded T/C. CCOc1cccc(/C=N/n2c(-c3ccccc3)nc3ccccc3c2=O)c1O
*A* 99 % of control

*Q* Give recorded T/C. CC(=O)ON(C(C)=O)C1CCCCC1
*A* 100 % of control

*Q* Give recorded T/C. Cc1ccc([SeH])cc1.[Sn]
*A* 94 % of control

*Q* Give recorded T/C. Cc1ccc(S(=O)CC(O)c2ccccc2)cc1 (stereo unspecified)
*A* 110 % of control

*Q* Give recorded T/C. O=[N+]([O-])c1ccc(-c2nc(/C=N/N3CCSCC3)cs2)s1
*A* 95 % of control

* * *

tested on: P388 leukemia ip, CD2F1 mice, survival T/C; test: NCI In Vivo Anticancer Drug Screen. Data for tumor model P388 Leukemia (intraperitoneal) in CD2F1 (CDF1) mice; settings: endpoint: median survival time; dose: 6.25 mg/kg/injection; schedule: Q01DX009 (ip); vehicle: saline with Tween-80
Toxic doses and inconclusive results are not listed. The calls were made as follows: active = survival T/C of 150% or more; inactive = T/C below 125% in these data.
Mark one answer only. Choices: 1 = active, -1 = inactive

*Q* Tell me the recorded outcome of this test for Cc1c(-c2ccccc2)ccnc1/C=N/NC(=S)Nc1ccc(N(C)C)cc1 .
*A* 1

*Q* Tell me the recorded outcome of this test for CCCN(CCC)CC(O)c1cc2cc(C(F)(F)F)cc(C(F)(F)F)c2c2cc(Cl)c(Cl)cc12 (centres undefined) .
*A* -1

*Q* Tell me the recorded outcome of this test for O=C1N/C(=N\c2nc3ccccc3s2)c2ccccc21 .
*A* -1

*Q* Tell me the recorded outcome of this test for COc1ccc2c(c1OC(C)=O)-c1cc(OC(C)=O)cc3c1C(C2)N(C(=O)CBr)CC3 (centres undefined) .
*A* -1

* * *

Could you please report measured T/C for the items listed next?
tested on: P388 leukemia ip, CD2F1 mice, survival T/C; experiment: NCI In Vivo Anticancer Drug Screen. Data for tumor model P388 Leukemia (intraperitoneal) in CD2F1 (CDF1) mice; conditions: endpoint: median survival time; dose: 400.0 mg/kg/injection; schedule: Q01DX001 (ip); vehicle: saline; higher = longer survival
Inconclusive results and toxic doses are left out.

*Q* Quote P388 leukemia ip, CD2F1 mice, survival T/C T/C for entry COC(=O)c1ncn(CCCO)c1O .
*A* 104 % of control

*Q* Quote P388 leukemia ip, CD2F1 mice, survival T/C T/C for entry O=c1[nH]c(=O)c2nc(-c3ccc(Cl)c(Cl)c3)cnc2[nH]1 .
*A* 91 % of control

*Q* Quote P388 leukemia ip, CD2F1 mice, survival T/C T/C for entry Nc1ccc(-c2nnc(-c3ccc(N)cc3)nn2)cc1 .
*A* 95 % of control

*Q* Quote P388 leukemia ip, CD2F1 mice, survival T/C T/C for entry COc1ccc(CS(=O)(=O)c2cnc(N3CCN(C)CC3)nc2N)cc1OC .
*A* 98 % of control

*Q* Quote P388 leukemia ip, CD2F1 mice, survival T/C T/C for entry C=C(CO)C(=O)OC1CC(=C)C2CC(O)C(=C)C2C2OC(=O)C(=C)C12 (stereo not given) .
*A* 104 % of control

* * *

tested on: P388 leukemia ip, CD2F1 mice, survival T/C; test: NCI In Vivo Anticancer Drug Screen. Data for tumor model P388 Leukemia (intraperitoneal) in CD2F1 (CDF1) mice; conditions: endpoint: median survival time; dose: 6.25 mg/kg/injection; schedule: Q01DX005 (ip); vehicle: saline; higher = longer survival
Toxic doses and inconclusive results are not listed.
measurement.name: T/C

*Q* Give recorded T/C. CCCCN(CCCC)C(=N)c1cc(OC)ccc1OC
*A* 100 % of control

*Q* Give recorded T/C. CC[N+](C)(C)c1ccc(C(=C2C=CC(=[N+](C)C)C=C2)c2ccc(N(C)C)cc2)cc1
*A* 100 % of control

*Q* Give recorded T/C. OCCN1CCN(CC/C=C2/c3ccccc3Sc3ccc(Cl)cc32)CC1
*A* 123 % of control

*Q* Give recorded T/C. CS/C(=C/c1ccc2ccccc2[n+]1C)N1CCN(C)CC1
*A* 99 % of control

* * *

Could you please report measured T/C for the items listed next?
system: P388 leukemia ip, CD2F1 mice, survival T/C; test: NCI In Vivo Anticancer Drug Screen. Data for tumor model P388 Leukemia (intraperitoneal) in CD2F1 (CDF1) mice; conditions: endpoint: median survival time; dose: 60.0 mg/kg/injection; schedule: Q01DX005 (ip); vehicle: saline with Tween-80; higher = longer survival
Inconclusive results and toxic doses are left out.

*Q* Give recorded T/C. O=C(O)CSCC(=O)Nc1cc(C(F)(F)F)ccc1Cl
*A* 95 % of control

*Q* Give recorded T/C. CC(=O)Nc1ncnc2c(C3OC(COC(C)=O)C(OC(C)=O)C3OC(C)=O)[nH]nc12 (configuration not stated)
*A* 105 % of control

*Q* Give recorded T/C. O=C1CC2(C(=O)O1)c1ccccc1-c1ccccc12
*A* 111 % of control

*Q* Give recorded T/C. COC(SC)(SC)c1cc(-c2c(Cl)cccc2Cl)no1
*A* 101 % of control

*Q* Give recorded T/C. O=C(O)c1ccc2c(c1)S(=O)(=O)NC2=O
*A* 95 % of control

*Q* Give recorded T/C. O=C1NC2(CCCCC2)C(=O)N1CCCN1C(=O)NC2(CCCCC2)C1=O
*A* 107 % of control

*Q* Give recorded T/C. Nc1nccc(CCc2ccccc2)n1
*A* 101 % of control

*Q* Give recorded T/C. Clc1ccc(NCNC2Nc3ccccc3N2)cc1Cl
*A* 94 % of control

*Q* Give recorded T/C. Cc1cc2c(cc1C)C(=O)c1cc3c(cc1C2=O)OCO3
*A* 94 % of control

*Q* Give recorded T/C. COC(=O)c1nnc(C(=O)OC)c2c1c1ccccc1n2C(=O)c1ccccc1
*A* 105 % of control

*Q* Give recorded T/C. O=C(COc1ccccc1)NC(=S)Nc1nccs1
*A* 96 % of control

*Q* Give recorded T/C. O=C1N2CCCSC2=NC1(c1ccccc1)c1ccccc1
*A* 97 % of control
